Ref: patent US10738015B2

Examples of compounds with documented inhibition at 1 µM follow.
SYSTEM UNDER TEST: human mu-opioid peptide (hMOP) receptor (Homo sapiens (Human))
Sequence (P35372 whole entry): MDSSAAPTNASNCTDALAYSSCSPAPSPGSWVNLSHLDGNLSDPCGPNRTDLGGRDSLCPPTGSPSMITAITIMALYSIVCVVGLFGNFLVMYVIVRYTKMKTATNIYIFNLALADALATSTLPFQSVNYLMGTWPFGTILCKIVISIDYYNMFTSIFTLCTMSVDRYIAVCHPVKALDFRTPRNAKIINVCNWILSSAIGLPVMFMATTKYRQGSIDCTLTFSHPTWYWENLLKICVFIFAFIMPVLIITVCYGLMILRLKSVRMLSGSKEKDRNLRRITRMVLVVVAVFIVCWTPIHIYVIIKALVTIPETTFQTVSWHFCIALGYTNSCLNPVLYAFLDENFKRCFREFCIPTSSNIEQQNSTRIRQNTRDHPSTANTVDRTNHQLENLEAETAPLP
METHOD NOTES: hMOP receptor binding assay (SPA)
CONDITION NOTES: read-out: hMOP Ki [nM] or % inhibition at 1 μM

# SAMPLE SMILES, SYSTEM UNDER TEST, inhibition at 1 µM [%]
rows = [
    ("Cc1cc(C(F)F)ncc1N1C[C@]2(C[C@](c3cccc(F)c3)(N(C)C)C2)NC1=O", "human mu-opioid peptide (hMOP) receptor (Homo sapiens (Human))", 11),
    ("Cc1cc(N2CCC2)ncc1N1C[C@]2(C[C@](c3ccccc3)(N(C)C)C2)NC1=O", "human mu-opioid peptide (hMOP) receptor (Homo sapiens (Human))", 18),
    ("Cc1nc(N2CCOCC2)ncc1N1C[C@]2(C[C@](c3ccccc3)(N(C)C)C2)NC1=O", "human mu-opioid peptide (hMOP) receptor (Homo sapiens (Human))", 13),
    ("CN(C)[C@]1(c2ccccc2)C[C@@]2(CN(CC(N)=O)C(=O)N2)C1", "human mu-opioid peptide (hMOP) receptor (Homo sapiens (Human))", 19),
    ("CN(C)[C@]1(c2ccccc2)C[C@@]2(CN(CC(=O)N3CCS(=O)(=O)CC3)C(=O)N2)C1", "human mu-opioid peptide (hMOP) receptor (Homo sapiens (Human))", 12),
]

====

SYSTEM UNDER TEST: human nociceptin/orphanin FQ peptide (hNOP) receptor (Homo sapiens (Human))
METHOD NOTES: hNOP receptor binding assay (SPA)
CONDITION NOTES: Ki; displacement of [leucyl-3H]nociceptin, hNOP receptor membranes; read-out: hNOP Ki [nM] or % inhibition at 1 μM
Binary label based on Ki with cut-off 20 nM: below gives T, not below gives F.

# SAMPLE SMILES, SYSTEM UNDER TEST, QUALITATIVE LABEL
measured = [
    ("CN(C)[C@]1(c2cccc(F)c2)C[C@@]2(CN(CCC#N)C(=O)N2CC2CC2)C1", "human nociceptin/orphanin FQ peptide (hNOP) receptor (Homo sapiens (Human))", "T"),
    ("COc1nc(C#N)ncc1N1C[C@]2(C[C@](c3ccccc3)(N(C)C)C2)N(CC2CCC2)C1=O", "human nociceptin/orphanin FQ peptide (hNOP) receptor (Homo sapiens (Human))", "T"),
    ("CN(C)[C@]1(c2cccc(F)c2)C[C@@]2(CN(CCC3COC3)C(=O)N2CC2CC2)C1", "human nociceptin/orphanin FQ peptide (hNOP) receptor (Homo sapiens (Human))", "T"),
    ("CN(C)[C@]1(c2ccccc2)C[C@]2(CN(CC(=O)N3CCS(=O)(=O)CC3)C(=O)N2CC2CCC2)C1", "human nociceptin/orphanin FQ peptide (hNOP) receptor (Homo sapiens (Human))", "F"),
    ("CN(C)[C@]1(c2cccc(F)c2)C[C@@]2(CN(c3ccc(OC(F)(F)F)cn3)C(=O)N2CC2(F)COC2)C1", "human nociceptin/orphanin FQ peptide (hNOP) receptor (Homo sapiens (Human))", "F"),
    ("Cc1cc(C(C)(C)O)ncc1N1C[C@]2(C[C@](c3ccccc3)(N(C)C)C2)NC1=O", "human nociceptin/orphanin FQ peptide (hNOP) receptor (Homo sapiens (Human))", "F"),
    ("CN(C)[C@]1(c2cccc(F)c2)C[C@@]2(CN(CC3(F)COC3)C(=O)N2CC2CC2)C1", "human nociceptin/orphanin FQ peptide (hNOP) receptor (Homo sapiens (Human))", "F"),
    ("CN(C)[C@]1(c2cccc(F)c2)C[C@@]2(CN(CC3(O)CCC3)C(=O)N2CC2CC2)C1", "human nociceptin/orphanin FQ peptide (hNOP) receptor (Homo sapiens (Human))", "F"),
]
